These measurements were taken from ChEMBL document CHEMBL2146394.

test: Metabolic stability in human hepatic microsomes at 1 umol/L after 20 mins; assay type: ADME; details: liver microsomes, read-out: Stability
Heads up, the class ranges for microsomal CLint at 1 µM are bottom bin (below 20 µL/min/mg), middle bin (20 µL/min/mg to below 40 µL/min/mg), top bin (40 µL/min/mg or more)

Consider the worked cases shown below.
# compound, className
data = [
    ("CC(C(=O)NCCn1ccc2ncnc(Nc3ccc(Oc4cccc(Cl)c4)c(Cl)c3)c21)S(C)(=O)=O (centres undefined)", "bottom bin"),
    ("CCS(=O)(=O)CC(=O)NCCn1ccc2ncnc(Nc3ccc(Oc4cccc(C(F)(F)F)c4)c(Cl)c3)c21", "middle bin"),
    ("CC(C(=O)NCCn1ccc2ncnc(Nc3ccc(Oc4cccc(C(F)(F)F)c4)c(Cl)c3)c21)S(C)(=O)=O (centres undefined)", "middle bin"),
    ("CC(C)S(=O)(=O)CC(=O)NCCn1ccc2ncnc(Nc3ccc(Oc4cccc(C(F)(F)F)c4)c(Cl)c3)c21", "top bin"),
    ("CC(C)(C(=O)NCCn1ccc2ncnc(Nc3ccc(Oc4cccc(Cl)c4)c(Cl)c3)c21)S(C)(=O)=O", "middle bin"),
    ("CS(=O)(=O)CC(=O)NCCn1ccc2ncnc(Nc3ccc(Oc4cccc(C(F)(F)F)c4)c(Cl)c3)c21", "bottom bin"),
]

Note: place this compound into its band. Item: "CS(=O)(=O)CC(=O)NCCn1ccc2ncnc(Nc3ccc(Oc4cccc(Cl)c4)c(Cl)c3)c21"
bottom bin

Note: place this compound into its band. Item: "CC(C)(C(=O)NCCn1ccc2ncnc(Nc3ccc(Oc4cccc(C(F)(F)F)c4)c(Cl)c3)c21)S(C)(=O)=O"
middle bin

Note: place this compound into its band. Item: "CC(C)(C)S(=O)(=O)CC(=O)NCCn1ccc2ncnc(Nc3ccc(Oc4cccc(C(F)(F)F)c4)c(Cl)c3)c21"
top bin
